B1: Pituitary-specific positive transcription factor 1, residues 130 to 198; numbered along this chain, P28069 (parent)
chain: RELEKFANEFKVRRIKLGYTQTNVGEALAAVHGSEFSQTTICRFENLQLSFKNACKLKAILSKWLEEAE

# Variants of: B1
# assay.text: abundance fitness (aPCA) (normalised: wild type 0, dead -1); higher = more abundant; growth selection in yeast, the domain comes from the species named
# test.settings: Homo sapiens
Would you please tag the item met when its abundance fitness is -0.2 or above, and not met when it is below?

# variant.notation, label.class
measured = [
    ("L61T", "not met"),
    ("A27Y", "met"),
    ("K63D", "met"),
    ("I60Y", "not met"),
    ("A27P", "not met"),
    ("Q48I", "not met"),
    ("I60C", "not met"),
    ("L3D", "not met"),
    ("F10Q", "not met"),
    ("T40C", "not met"),
    ("S34E", "met"),
    ("A54F", "met"),
    ("A29W", "not met"),
    ("K16L", "not met"),
    ("I41N", "not met"),
    ("E66C", "met"),
    ("L49M", "met"),
    ("L61G", "not met"),
    ("I15K", "met"),
    ("L61D", "not met"),
    ("T40W", "not met"),
    ("E67L", "not met"),
    ("A27D", "not met"),
    ("F10L", "not met"),
    ("I60T", "not met"),
    ("E67K", "met"),
    ("E67R", "met"),
    ("V31S", "met"),
    ("L57R", "not met"),
    ("K58H", "not met"),
    ("A29S", "met"),
    ("E35G", "met"),
    ("S62I", "met"),
    ("A7C", "not met"),
    ("L57K", "not met"),
    ("R1D", "met"),
    ("L65V", "not met"),
    ("N23C", "met"),
    ("Q21M", "not met"),
    ("F10W", "not met"),
    ("K52D", "met"),
    ("I60V", "met"),
    ("N23H", "met"),
    ("K16C", "met"),
    ("E45L", "not met"),
]

Source of measurements: the Human Domainome abundance scans (Beltran et al. 2025)
